Reference source for all entries: PubChem BioAssay (NCI)

Each record here notes measured growth.
- Test system: U251 CNS
- Protocol details: NCI-60 one-dose screen, 48 h (100 = growth as untreated, 0 = no growth, -100 = all killed)
- Study conditions: 10 µM unless noted
This is part of a sample that, as a whole, favours compounds with a hit. Of some 83,000 tested, about 20% had one in any assay. Active and inactive are the calls of the source. The calls were made as follows: active = growth percent below 10; inactive = the rest.

{"columns": ["Compound", "growth"],
 "data": [
  ["CCCCN(CCCC)CC(O)CN(CC)CC (stereo not given)", "102% (inactive)"],
  ["O=C(/C=C/c1ccc(Br)cc1)c1ccccc1", "69% (inactive)"],
  ["Oc1ccc([S+](c2ccc(O)cc2)c2ccc(O)cc2)cc1", "103% (inactive)"],
  ["N=c1c2c(=O)n3c(nc2nc2sc4ccc(Cl)cc4n12)-c1ccccc1Sc1ccccc1-3", "24.7% (inactive)"],
  ["COc1cccc2c1nc1cccc(OC)c1[n+]2[O-]", "46.6% (inactive)"],
  ["COc1ccc(-c2nc(SCC(C)C)nc(Nc3ccccc3)c2C#N)cc1", "50.5% (inactive)"],
  ["O=C(NC(=S)NNC(=S)NNc1ccccc1)c1ccccc1", "48% (inactive)"],
  ["O=C(Oc1ccccc1)c1ccccc1Cl", "98.5% (inactive)"],
  ["N#CC1=C(N2CCOCC2)NC2c3ccccc3Sc3ccccc3N2C1=N (stereo not given)", "98.7% (inactive)"],
  ["CC(C)OCC1CO1 (stereo not given)", "102% (inactive)"],
  ["O=C(N/N=C/c1ccccc1Cl)c1cccc2ccccc12", "98.4% (inactive)"],
  ["CC(=O)Oc1cc2ccccc2cc1C(C)C", "112% (inactive)"],
  ["COc1ccc(C(=O)c2no[n+]([O-])c2C(=O)c2ccc(OC)cc2)cc1", "35.9% (inactive)"],
  ["COc1cc(N2C(=O)C=CC2=O)ccc1N1C(=O)C=CC1=O", "97.5% (inactive)"],
  ["N#Cc1c2ncccc2c2nnc3cc(Cl)c(Cl)cc3n12", "90.6% (inactive)"],
  ["Oc1ccccc1\\C=N/N=C/C=C/c1ccccc1", "99.5% (inactive)"],
  ["CCNc1nnc(COc2ccc(CNC(=O)CCCC/C=C/C(C)C)cc2OC)o1", "98.3% (inactive)"],
  ["O=C1/C(=N\\c2cc(=O)[nH]n2S(=O)(=O)c2ccccc2)Nc2ccccc21", "105% (inactive)"],
  ["CCCCCN1CCN(C(CC(=O)c2ccccc2)C(=O)c2ccccc2)CC1 (stereo not given)", "92.6% (inactive)"],
  ["CC(=O)O.[In]", "98.8% (inactive)"],
  ["Cc1c([C@H](C(Cl)Cl)[C@H](O)[C@H]2C[C@H](C)C(=O)O2)ccc2c1C(=O)[C@H]1[C@H]2C[C@@H](Br)[C@@]23O[C@@H](CO[C@H]2O)CC13C (stereo not given in full)", "14.4% (inactive)"],
  ["C=CCN(C)C", "102% (inactive)"],
  ["CC(=O)OC1/C=C\\CC/C=C\\C1 (stereo not given)", "96.6% (inactive)"],
  ["CCCCCCN(CCCCCC)CCC(=O)Nc1ccc(S(=O)(=O)c2ccc(NC(=O)CCN(CCCCCC)CCCCCC)cc2)cc1", "88.4% (inactive)"],
  ["CCC(C)(CC)c1ccc(O)c(C)c1", "97.7% (inactive)"]
]}
